assay.target: T1, PKA
T1 construct: Bought enzyme
run.description: in vitro PKA kinase activity assay, 33P-ATP, kemptide substrate, Flash Plate
Below is a list of entries, each paired with its recorded Ki value.

### Prompt Return Ki (reported value) for this binder: VELDPEFEPRARERTYSFGH [Peptide 1]
### Response > 34 µM

### Prompt Return Ki (reported value) for this binder: VELDPEFEPRARERAYAFGH (Made from peptide 2 by changing Thr at position 15 to Ala) [Peptide 4]
### Response > 34 µM
